Attribute: IC50
test system: MIA PaCa-2; experiment: Cytotoxicity against human MIAPaCa2 cells assessed as growth inhibition after 48 hrs by MTT assay; format: functional, cell-based; details: MIA PaCa-2, 48 h
Numeric answer only, unit nM assumed.

{"columns": ["structure-string", "unit-of-measurement", "IC50"],
 "data": [
  ["O=C(CCCCCCC(=O)Nc1ccccc1)NO", "nM", 2200]
]}

We now examine a further molecule.
// molecule O=C(CCCCCCC(=O)Nc1ccccc1CN1CC[C@H](O)C1)NO , assay MIA PaCa-2, IC50 value: 1000

###

Molecular target: Polyamine deacetylase HDAC10 (Homo sapiens)
Sequence (Q969S8 whole entry): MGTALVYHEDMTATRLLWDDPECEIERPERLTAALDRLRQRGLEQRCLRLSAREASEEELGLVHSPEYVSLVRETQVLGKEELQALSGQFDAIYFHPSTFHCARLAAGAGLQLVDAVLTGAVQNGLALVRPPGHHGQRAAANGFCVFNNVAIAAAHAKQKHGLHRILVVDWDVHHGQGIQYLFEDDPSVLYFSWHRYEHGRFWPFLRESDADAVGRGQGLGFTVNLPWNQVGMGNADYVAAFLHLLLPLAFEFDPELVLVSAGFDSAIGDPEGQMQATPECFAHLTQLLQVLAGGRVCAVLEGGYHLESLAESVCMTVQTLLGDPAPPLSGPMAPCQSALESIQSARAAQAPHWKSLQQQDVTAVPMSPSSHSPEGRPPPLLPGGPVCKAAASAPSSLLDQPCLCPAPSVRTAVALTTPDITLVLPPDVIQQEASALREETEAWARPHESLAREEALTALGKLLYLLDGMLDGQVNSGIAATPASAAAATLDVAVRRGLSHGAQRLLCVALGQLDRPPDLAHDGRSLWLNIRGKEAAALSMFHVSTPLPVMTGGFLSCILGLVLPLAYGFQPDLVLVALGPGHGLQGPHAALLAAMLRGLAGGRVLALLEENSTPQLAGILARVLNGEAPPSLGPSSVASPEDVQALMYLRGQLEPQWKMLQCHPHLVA
pIC50: −log10 of the molar value.
observed-property: pIC50

So, O=C(CCCCCCC(=O)Nc1ccccc1CN1CC[C@H](O)C1)NO ? Its pIC50 was < 5.00

###

Attribute: inhibition of growth at 10 µM
tested on: A549; test: Cytotoxicity against human A549 cells assessed as growth inhibition at 10 uM after 48 hrs by MTT assay; format: functional; details: A549, 48 h, read-out: GI
Numeric answer only, unit % assumed.

Consider the reported inhibition of growth at 10 µM for these compounds:
{"columns": ["structure-string", "value"],
 "data": [
  ["O=C(CCCCCCCC(=O)Nc1ccccc1CN1CC[C@H](O)C1)NO", 5],
  ["O=C(CCCCCCC(=O)Nc1ccccc1CN1CC[C@H](O)C1)NO", 84]
]}

// compound O=C(CCCCC(=O)Nc1ccccc1CN1CC[C@H](O)C1)NO , assay A549, inhibition of growth at 10 µM value: 19

// compound O=C(CCCC(=O)Nc1ccccc1CN1CC[C@H](O)C1)NO , assay A549, inhibition of growth at 10 µM value: 5

###

tested on: COLO 205; test: Cytotoxicity against human COLO205 cells assessed as growth inhibition at 10 uM after 48 hrs by MTT assay; assay type: functional; conditions: COLO 205, 48 h, read-out: GI
Attribute: inhibition of growth at 10 µM
Numeric answer only, unit % assumed.

Consider the reported inhibition of growth at 10 µM for these molecules:
{"columns": ["structure-string", "unit-of-measurement", "inhibition of growth at 10 µM"],
 "data": [
  ["O=C(CCCCCCC(=O)Nc1ccccc1CN1CC[C@H](O)C1)NO", "%", 92],
  ["O=C(CCCCC(=O)Nc1ccccc1CN1CC[C@H](O)C1)NO", "%", 22],
  ["O=C(CCCCCCCC(=O)Nc1ccccc1CN1CC[C@H](O)C1)NO", "%", 7]
]}

// molecule O=C(CCCC(=O)Nc1ccccc1CN1CC[C@H](O)C1)NO , assay COLO 205, inhibition of growth at 10 µM value: 26

###

species: Homo sapiens; assay: Inhibition of HDAC in human HeLa nuclear extract up to 2 uM using Boc-Lys(Ac)-AMC as substrate measured after 30 mins by fluorometric analysis
Calls of active or inactive are those of the source. No cut-off for these calls is given here.
Choose one outcome from this list and give only that: YES for active, NO for inactive

{"columns": ["structure-string", "label-value"],
 "data": [
  ["O=C(CCCCCCCC(=O)Nc1ccccc1CN1CC[C@H](O)C1)NO", "YES"]
]}

## Input Hi team, can someone confirm the assay call for O=C(CCCC(=O)N[C@H]1CCN(Cc2ccccc2)C1)NO ?
## Output NO

## Input Hi team, can someone confirm the assay call for O=C(CCCC(=O)N[C@@H]1CCN(Cc2ccccc2)C1)NO ?
## Output NO

## Input Hi team, can someone confirm the assay call for O=C(CCCCC(=O)N[C@@H]1CCN(Cc2ccccc2)C1)NO ?
## Output NO

## Input Hi team, can someone confirm the assay call for O=C(CCCCC(=O)Nc1ccccc1CN1CC[C@H](O)C1)NO ?
## Output YES

## Input Hi team, can someone confirm the assay call for O=C(CCCCCCC(=O)N[C@H]1CCN(Cc2ccccc2)C1)NO ?
## Output NO

###

target: Histone deacetylase 8 (Homo sapiens, UniProt Q9BY41)
Sequence (Q9BY41 whole entry): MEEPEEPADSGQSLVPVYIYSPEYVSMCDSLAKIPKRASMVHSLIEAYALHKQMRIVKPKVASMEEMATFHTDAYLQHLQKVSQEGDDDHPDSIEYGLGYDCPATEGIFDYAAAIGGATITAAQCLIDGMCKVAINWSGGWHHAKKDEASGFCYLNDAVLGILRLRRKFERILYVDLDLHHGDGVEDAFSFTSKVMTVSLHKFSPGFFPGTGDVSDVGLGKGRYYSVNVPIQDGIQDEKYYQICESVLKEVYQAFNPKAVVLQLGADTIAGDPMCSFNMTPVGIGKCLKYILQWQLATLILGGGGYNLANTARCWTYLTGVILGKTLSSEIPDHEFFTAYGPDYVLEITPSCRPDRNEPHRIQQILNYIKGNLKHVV
observed-property: pIC50
As a rule, pIC50 stands for the negative log10 of the concentration, concentration in M.

// molecule O=C(CCCCCCC(=O)Nc1ccccc1CN1CC[C@H](O)C1)NO , assay Histone deacetylase 8 (Homo sapiens, UniProt Q9BY41), pIC50 value: 6.68

###

target: Histone deacetylase 9 (Homo sapiens, UniProt Q9UKV0)
Sequence (Q9UKV0 whole entry): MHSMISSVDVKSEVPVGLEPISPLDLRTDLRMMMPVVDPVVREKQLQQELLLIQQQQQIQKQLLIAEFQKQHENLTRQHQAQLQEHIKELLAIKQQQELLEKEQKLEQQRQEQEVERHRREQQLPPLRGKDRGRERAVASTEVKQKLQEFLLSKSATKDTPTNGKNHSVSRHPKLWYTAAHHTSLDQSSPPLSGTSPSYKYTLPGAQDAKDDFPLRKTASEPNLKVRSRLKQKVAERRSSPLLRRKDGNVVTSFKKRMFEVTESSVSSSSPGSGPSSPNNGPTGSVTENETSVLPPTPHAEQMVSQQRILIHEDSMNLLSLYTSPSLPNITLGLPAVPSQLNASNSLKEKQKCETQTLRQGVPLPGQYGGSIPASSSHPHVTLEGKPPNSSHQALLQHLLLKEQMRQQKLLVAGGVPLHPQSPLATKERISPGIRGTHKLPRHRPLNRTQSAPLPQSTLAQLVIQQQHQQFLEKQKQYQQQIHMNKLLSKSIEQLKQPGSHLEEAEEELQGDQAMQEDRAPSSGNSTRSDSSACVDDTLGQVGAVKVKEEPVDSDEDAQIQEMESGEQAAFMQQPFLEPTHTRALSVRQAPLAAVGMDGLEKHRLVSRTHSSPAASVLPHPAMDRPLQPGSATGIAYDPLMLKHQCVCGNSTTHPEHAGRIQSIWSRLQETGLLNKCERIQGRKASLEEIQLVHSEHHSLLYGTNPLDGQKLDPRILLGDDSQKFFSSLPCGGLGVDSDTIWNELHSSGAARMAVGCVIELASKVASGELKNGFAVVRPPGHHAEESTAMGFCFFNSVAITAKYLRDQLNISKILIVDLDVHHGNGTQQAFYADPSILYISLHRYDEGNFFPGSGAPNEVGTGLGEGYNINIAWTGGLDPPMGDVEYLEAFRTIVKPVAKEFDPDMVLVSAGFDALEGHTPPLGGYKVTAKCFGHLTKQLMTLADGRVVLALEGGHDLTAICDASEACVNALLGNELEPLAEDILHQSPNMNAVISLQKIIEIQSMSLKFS
observed-property: IC50

// molecule O=C(CCCCCCC(=O)Nc1ccccc1CN1CC[C@H](O)C1)NO , assay Histone deacetylase 9 (Homo sapiens, UniProt Q9UKV0), IC50 value: > 10 µM

###

test system: Caco-2; test: Cytotoxicity against human Caco2 cells assessed as growth inhibition after 48 hrs by MTT assay; type: functional, cell-based; conditions: Caco-2, 48 h
observed-property: IC50 (µM)
Numeric answer only, unit µM assumed.

So, O=C(CCCCCCC(=O)Nc1ccccc1CN1CC[C@H](O)C1)NO ? Its IC50 was 6

###

test system: PC-3; assay: Cytotoxicity against human PC3 cells assessed as growth inhibition at 10 uM after 48 hrs by MTT assay; type: functional; conditions: PC-3, 48 h, read-out: GI
Attribute: inhibition of growth at 10 µM
Numeric answer only, unit % assumed.

Consider the reported inhibition of growth at 10 µM for these molecules:
{"columns": ["structure-string", "inhibition of growth at 10 µM (%)"],
 "data": [
  ["O=C(CCCCC(=O)Nc1ccccc1CN1CC[C@H](O)C1)NO", 15],
  ["O=C(CCCCCCC(=O)Nc1ccccc1CN1CC[C@H](O)C1)NO", 29],
  ["O=C(CCCC(=O)Nc1ccccc1CN1CC[C@H](O)C1)NO", 2]
]}

So, O=C(CCCCCCCC(=O)Nc1ccccc1CN1CC[C@H](O)C1)NO ? Its inhibition of growth at 10 µM was 12

###

target: UniProt Q96DB2
Sequence (Q96DB2 whole entry): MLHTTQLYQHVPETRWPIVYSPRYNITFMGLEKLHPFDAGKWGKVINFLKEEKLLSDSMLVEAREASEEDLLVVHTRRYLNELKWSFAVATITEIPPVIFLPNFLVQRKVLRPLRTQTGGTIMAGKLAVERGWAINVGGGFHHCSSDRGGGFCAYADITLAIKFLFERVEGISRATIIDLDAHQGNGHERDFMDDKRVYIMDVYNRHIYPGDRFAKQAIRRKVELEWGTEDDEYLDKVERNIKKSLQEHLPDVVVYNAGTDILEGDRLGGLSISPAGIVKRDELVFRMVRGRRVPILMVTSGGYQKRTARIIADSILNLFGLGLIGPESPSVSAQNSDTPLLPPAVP
observed-property: IC50

// compound O=C(CCCCCCC(=O)Nc1ccccc1CN1CC[C@H](O)C1)NO , assay UniProt Q96DB2, IC50 value: > 10 µM

###

target: Histone deacetylase 5 (Homo sapiens)
Sequence (Q9UQL6 whole entry): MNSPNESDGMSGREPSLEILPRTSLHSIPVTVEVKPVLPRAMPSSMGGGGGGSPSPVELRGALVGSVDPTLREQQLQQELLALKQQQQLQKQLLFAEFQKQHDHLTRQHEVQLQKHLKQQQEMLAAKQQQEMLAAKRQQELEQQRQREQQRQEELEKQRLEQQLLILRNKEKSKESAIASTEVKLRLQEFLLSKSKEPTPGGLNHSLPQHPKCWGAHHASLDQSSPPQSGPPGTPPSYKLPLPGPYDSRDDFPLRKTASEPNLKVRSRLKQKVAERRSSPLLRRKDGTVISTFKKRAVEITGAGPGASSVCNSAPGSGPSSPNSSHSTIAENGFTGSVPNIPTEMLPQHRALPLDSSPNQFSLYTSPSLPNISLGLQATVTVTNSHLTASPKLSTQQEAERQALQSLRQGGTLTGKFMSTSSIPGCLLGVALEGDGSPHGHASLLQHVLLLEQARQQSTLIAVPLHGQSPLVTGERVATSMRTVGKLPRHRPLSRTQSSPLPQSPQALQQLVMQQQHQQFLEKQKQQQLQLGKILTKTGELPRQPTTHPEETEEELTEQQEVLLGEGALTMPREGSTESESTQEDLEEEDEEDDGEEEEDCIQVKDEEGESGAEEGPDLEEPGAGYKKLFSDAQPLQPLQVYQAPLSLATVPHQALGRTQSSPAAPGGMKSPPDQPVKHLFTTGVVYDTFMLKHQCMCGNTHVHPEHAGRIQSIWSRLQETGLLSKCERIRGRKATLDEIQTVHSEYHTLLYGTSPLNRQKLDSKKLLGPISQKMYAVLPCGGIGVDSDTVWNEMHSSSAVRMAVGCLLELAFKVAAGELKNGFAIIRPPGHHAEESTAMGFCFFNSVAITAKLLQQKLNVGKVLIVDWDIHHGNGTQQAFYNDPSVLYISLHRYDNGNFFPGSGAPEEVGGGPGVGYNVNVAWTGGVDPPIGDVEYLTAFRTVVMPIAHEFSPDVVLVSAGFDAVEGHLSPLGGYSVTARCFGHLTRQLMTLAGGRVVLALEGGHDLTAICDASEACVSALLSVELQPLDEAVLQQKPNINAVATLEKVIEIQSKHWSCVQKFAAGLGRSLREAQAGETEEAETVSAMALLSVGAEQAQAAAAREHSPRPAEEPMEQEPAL
observed-property: IC50 (µM)
Numeric answer only, unit µM assumed.

// molecule O=C(CCCCCCC(=O)Nc1ccccc1CN1CC[C@H](O)C1)NO , assay Histone deacetylase 5 (Homo sapiens), IC50 value: 5.39

###

test system: MCF-10A; experiment: Cytotoxicity against human MCF10A cells assessed as growth inhibition after 48 hrs by MTT assay; type: ADME, cell-based
observed-property: IC50 (µM)
Numeric answer only, unit µM assumed.

So, O=C(CCCCCCC(=O)Nc1ccccc1CN1CC[C@H](O)C1)NO ? Its IC50 was 37

###

biological target: Histone deacetylase 2 (Homo sapiens, UniProt Q92769); experiment: Inhibition of HDAC 2 in human HeLa nuclear extract using HDAC substrate-3 measured after 60 mins by fluorometric analysis
Sequence (Q92769 whole entry): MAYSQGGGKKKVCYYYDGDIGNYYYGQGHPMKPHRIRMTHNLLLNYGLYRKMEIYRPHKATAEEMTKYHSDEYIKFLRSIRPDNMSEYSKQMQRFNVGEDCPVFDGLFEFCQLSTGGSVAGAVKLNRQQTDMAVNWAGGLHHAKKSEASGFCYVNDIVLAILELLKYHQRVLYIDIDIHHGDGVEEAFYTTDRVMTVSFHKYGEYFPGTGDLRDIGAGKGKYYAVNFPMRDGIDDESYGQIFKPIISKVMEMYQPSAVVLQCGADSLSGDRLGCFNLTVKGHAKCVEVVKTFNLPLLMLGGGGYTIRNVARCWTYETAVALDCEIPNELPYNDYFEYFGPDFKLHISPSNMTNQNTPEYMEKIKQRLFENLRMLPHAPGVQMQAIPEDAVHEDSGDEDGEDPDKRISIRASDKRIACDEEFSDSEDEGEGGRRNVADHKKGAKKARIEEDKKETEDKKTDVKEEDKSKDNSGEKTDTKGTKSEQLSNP
observed-property: IC50 (nM)
Numeric answer only, unit nM assumed.

So, O=C(CCCCCCC(=O)Nc1ccccc1CN1CC[C@H](O)C1)NO ? Its IC50 was 268
